# key: entry, value: SH2 binding enrichment
# tested-target: c-Src SH2;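 further: peptide library displayed on the E. coli surface as eCPX fusions, selected cells deep-sequenced, score is each peptide's frequency after selection divided by its frequency in the input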
# procedure-details: SH2 binding enrichment of the phosphorylated peptide, bacterial display (enrichment ratio); higher = better substrate or ligand; peptides without Tyr show the background

Known results for sequences:
Respond only with SH2 binding enrichment recorded for TGDVQYRSSVR [FREM2_Y2158]
0.433

Provide one value: measured SH2 binding enrichment of NVTGHYIPPFH [PPA2_Y59_S61P]
0.538

Fill in SH2 binding enrichment for record VDTRAYFTSAT [MT-CO1_Y304]
0.693

Others:
Dear colleague, please send me the reported SH2 binding enrichment for MSIWPYLQKID [MFSD8_Y63] when you can.
0.71

Give me measured SH2 binding enrichment, please, for this sequence: TIQIMFGCDVG [HLA-A_Y123_Y123F]
0.515

----------
Recorded phosphorylation enrichment by entry
# tested-target: Jak2 (UniProt O60674)
# Sequence (O60674 whole entry, looked up): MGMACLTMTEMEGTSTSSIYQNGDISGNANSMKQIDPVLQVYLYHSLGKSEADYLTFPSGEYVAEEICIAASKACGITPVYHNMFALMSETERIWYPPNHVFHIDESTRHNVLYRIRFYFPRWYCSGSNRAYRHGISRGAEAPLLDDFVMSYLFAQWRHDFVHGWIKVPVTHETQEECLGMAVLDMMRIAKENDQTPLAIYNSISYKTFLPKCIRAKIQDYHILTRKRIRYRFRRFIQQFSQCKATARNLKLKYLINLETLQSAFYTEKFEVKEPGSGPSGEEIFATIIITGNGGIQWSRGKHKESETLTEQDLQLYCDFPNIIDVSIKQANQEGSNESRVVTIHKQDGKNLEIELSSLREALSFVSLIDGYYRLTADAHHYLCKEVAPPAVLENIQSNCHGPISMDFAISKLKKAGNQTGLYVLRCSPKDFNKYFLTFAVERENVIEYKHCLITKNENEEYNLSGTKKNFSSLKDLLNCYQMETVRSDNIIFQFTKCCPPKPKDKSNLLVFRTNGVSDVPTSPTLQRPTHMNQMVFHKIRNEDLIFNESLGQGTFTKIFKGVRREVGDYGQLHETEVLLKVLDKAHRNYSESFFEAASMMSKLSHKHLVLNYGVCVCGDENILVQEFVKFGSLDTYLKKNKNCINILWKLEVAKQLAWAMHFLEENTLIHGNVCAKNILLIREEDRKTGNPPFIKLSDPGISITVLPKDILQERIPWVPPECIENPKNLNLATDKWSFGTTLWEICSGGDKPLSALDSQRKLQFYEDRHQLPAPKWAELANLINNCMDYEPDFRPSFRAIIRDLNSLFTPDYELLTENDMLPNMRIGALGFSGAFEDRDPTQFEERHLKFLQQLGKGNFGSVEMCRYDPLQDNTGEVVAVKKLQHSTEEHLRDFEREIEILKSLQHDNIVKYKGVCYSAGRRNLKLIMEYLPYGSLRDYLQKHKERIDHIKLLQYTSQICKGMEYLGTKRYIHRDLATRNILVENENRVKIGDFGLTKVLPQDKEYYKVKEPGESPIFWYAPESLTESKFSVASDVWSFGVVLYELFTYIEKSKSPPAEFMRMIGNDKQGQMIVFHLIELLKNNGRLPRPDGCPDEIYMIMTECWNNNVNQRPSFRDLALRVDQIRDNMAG
# procedure-details: phosphorylation enrichment, bacterial display (enrichment ratio); higher = better substrate or ligand; peptides without Tyr show the background

Some entries whose results are on file:
Check Jak2 (UniProt O60674) data and give phosphorylation enrichment for VFLGAYDRFLP [SLC22A5_Y486_YF] .
0.976

Using Jak2 (UniProt O60674) as the test system, report measured phosphorylation enrichment of FMGVEYSSCDT [EPHA3_Y937_T933M] .
1.2

Name the recorded phosphorylation enrichment of FSGDFYRIQGR [DDR2_Y741_YF] , assay system Jak2 (UniProt O60674).
0.944

# return phosphorylation enrichment of KPNMNYDKLSQ [FLI1_Y332_R337Q] (system: Jak2 (UniProt O60674))
0.612

Fetch value of phosphorylation enrichment on Jak2 (UniProt O60674) for QELRRYLESGV [MICA_Y194_K196E] .
1.16

---
Report value only: phosphorylation enrichment, Jak2 (UniProt O60674), SLNAVYPRAGR [OAS3_Y376_S381R]
0.655

Answer briefly: phosphorylation enrichment recorded on Jak2 (UniProt O60674) for NMHSTYAKLAA [SEC22B_Y193]
0.362

----------
Quick list: phosphorylation enrichment per entry.
# tested-target: Hck (UniProt P08631)
# Sequence (P08631 whole entry, looked up): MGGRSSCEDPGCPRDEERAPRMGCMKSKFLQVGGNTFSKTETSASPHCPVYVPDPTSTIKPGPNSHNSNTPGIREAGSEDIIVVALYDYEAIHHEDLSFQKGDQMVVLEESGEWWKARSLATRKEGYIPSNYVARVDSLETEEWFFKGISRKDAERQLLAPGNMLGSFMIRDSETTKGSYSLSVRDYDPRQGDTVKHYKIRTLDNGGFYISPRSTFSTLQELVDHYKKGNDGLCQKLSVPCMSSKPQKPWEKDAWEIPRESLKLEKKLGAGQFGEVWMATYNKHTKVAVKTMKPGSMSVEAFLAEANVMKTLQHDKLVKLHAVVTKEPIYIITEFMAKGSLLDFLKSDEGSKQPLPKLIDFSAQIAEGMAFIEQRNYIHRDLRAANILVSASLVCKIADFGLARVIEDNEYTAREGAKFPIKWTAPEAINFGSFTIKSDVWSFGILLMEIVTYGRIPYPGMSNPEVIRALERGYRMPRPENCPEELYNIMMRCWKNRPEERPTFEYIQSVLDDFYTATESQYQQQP
# procedure-details: phosphorylation enrichment, bacterial display (enrichment ratio); higher = better substrate or ligand; peptides without Tyr show the background
Please state the value as a number alone, without comment.

Completed entries (count: 8):
Output phosphorylation enrichment of NDKLRYEVSSP [CDH13_Y66]
0.502

Using known records, supply phosphorylation enrichment for TKFRNYLIPKG [CYP2C8_Y379]
0.429

Determine its reported phosphorylation enrichment: PTTKTYFRHFD [HBA1_Y43_P45R]
0.539

Name the recorded phosphorylation enrichment of the sequence listed here: FSSLGYPLPEG [ZSWIM4_Y87_P89L_YF]
0.525

Check the records and state phosphorylation enrichment for DISEPYEVYRI [IRF8_Y107_K108E]
1.28

Respond only with phosphorylation enrichment recorded for GSQERYFELVE [TSC2_Y407]
0.466

Supply recorded phosphorylation enrichment for DPLLTYQFPPK [LMNA_Y481_R482Q] here.
0.986

Annotate the sequence TFVKSYTIHFS [F5_Y2153_M2148T_YF] with its measured phosphorylation enrichment.
0.424

Next:
Give the reported value of phosphorylation enrichment for this record: LTFPDYLPCSV [SAG_Y129]
0.479

Give me measured phosphorylation enrichment, please, for this sequence: RELGEYGLQAY [ALDH2_Y497]
0.824

Identify phosphorylation enrichment associated with the sequence KPNMNYDKLSQ [FLI1_Y332_R337Q]
0.431

Using the record for PIAPVYAASMV [ACAT1_Y331] , state its measured phosphorylation enrichment.
13.5

# return recorded phosphorylation enrichment for entry FADIAYNYRHA [PAH_Y166_G171A]
0.415

In one line, give reported phosphorylation enrichment of the entry WVFNHYRWFIW [BRCA2_Y2624_I2627F_YF] .
0.482

Kindly indicate its recorded phosphorylation enrichment. Item: QFQLKYSETPF [SIX6OS1_Y129_YF]
0.855

Could you please provide reported phosphorylation enrichment for TKLKDYFIFNK [CCDC42_Y149_A144T_YF] ? Thanks!
0.42

Give reported phosphorylation enrichment value for TLLPDYEDEEE [ZNF830_Y159_S154T]
0.709

Provide phosphorylation enrichment value for the following sequence: LVRPPYSYLAL [FOXI1_Y126_S129L]
0.678

Read the entry SQSPHYFRSGQ [GPATCH8_Y1038_R1043Q] and write its reported phosphorylation enrichment.
0.325

Give the value of phosphorylation enrichment reported for the following: KSDVVYTDWKK [ORM1_Y175]
4.84

Output phosphorylation enrichment of MSFDRYMAVCH [OR2A5_Y123_I126V_YF]
0.638
